# IC50 per entry
- EXPERIMENTAL_TARGET: human α1G T-type channels (Homo sapiens)
- Sequence (O43497 whole entry): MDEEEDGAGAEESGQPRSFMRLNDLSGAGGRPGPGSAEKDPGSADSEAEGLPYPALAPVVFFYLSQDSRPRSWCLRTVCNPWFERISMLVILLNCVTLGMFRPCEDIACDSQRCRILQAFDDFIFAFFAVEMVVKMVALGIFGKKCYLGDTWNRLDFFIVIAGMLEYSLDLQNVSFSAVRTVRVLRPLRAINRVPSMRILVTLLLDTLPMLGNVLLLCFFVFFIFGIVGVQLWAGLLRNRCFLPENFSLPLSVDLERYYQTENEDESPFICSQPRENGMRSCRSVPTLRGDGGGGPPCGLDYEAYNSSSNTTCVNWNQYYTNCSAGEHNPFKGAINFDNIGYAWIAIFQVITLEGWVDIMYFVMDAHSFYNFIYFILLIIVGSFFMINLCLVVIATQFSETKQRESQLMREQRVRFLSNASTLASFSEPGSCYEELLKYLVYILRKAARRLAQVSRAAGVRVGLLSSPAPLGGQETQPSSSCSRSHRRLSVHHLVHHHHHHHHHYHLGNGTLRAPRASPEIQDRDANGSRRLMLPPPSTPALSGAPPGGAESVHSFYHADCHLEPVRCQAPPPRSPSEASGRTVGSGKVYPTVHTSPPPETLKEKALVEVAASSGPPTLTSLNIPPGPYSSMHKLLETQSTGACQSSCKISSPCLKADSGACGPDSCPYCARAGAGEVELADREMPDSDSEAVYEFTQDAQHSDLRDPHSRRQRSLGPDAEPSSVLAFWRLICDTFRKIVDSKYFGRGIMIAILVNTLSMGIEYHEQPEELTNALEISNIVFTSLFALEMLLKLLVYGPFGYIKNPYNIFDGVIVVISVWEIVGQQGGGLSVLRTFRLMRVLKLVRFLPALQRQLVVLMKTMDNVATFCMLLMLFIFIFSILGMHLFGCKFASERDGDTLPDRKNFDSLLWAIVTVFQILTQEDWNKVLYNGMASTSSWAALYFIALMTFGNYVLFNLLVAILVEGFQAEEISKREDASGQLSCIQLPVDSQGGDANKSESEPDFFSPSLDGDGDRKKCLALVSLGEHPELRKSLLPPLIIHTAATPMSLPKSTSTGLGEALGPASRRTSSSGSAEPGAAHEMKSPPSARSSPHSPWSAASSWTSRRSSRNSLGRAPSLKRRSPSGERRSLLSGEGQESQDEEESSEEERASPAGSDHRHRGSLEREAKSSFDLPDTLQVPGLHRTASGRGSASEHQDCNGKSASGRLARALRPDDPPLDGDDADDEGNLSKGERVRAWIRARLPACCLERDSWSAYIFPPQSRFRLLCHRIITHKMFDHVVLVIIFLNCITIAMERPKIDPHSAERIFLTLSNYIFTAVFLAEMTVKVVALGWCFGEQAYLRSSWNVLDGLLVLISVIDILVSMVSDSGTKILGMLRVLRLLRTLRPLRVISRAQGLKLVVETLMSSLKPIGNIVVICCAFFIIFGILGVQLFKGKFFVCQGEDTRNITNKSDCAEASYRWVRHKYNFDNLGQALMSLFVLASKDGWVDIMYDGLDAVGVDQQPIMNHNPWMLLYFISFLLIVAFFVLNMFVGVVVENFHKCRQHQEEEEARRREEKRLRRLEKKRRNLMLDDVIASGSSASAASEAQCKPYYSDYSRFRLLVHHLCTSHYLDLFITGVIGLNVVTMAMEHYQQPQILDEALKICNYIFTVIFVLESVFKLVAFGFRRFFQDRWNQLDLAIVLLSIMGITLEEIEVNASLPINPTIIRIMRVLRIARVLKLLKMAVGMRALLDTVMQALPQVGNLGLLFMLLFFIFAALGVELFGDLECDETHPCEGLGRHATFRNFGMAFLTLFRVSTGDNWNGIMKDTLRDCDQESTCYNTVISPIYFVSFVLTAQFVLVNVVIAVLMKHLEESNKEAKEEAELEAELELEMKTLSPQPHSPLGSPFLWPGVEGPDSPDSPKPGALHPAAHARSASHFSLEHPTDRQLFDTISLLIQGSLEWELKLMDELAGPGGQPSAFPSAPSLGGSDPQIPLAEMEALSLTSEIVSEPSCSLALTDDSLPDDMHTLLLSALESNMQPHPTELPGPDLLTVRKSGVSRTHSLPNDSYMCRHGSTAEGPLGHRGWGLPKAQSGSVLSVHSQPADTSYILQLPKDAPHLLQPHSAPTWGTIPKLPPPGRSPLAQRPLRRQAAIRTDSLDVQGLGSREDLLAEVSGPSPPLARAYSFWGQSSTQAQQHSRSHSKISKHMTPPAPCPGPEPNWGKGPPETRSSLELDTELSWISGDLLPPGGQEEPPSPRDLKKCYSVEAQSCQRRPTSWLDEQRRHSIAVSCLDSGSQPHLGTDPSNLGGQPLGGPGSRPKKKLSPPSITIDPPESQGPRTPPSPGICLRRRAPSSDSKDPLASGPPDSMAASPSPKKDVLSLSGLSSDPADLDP
- TEST_DESCRIPTION: T-type calcium channel block, whole cell patch clamp (α1G)
- CONDITIONS: HEK cells stably expressing human α1G; mainly non-inactivated protocol; values above 10 μM represented as 10 μM, values below 0.30 μM represented as 0.30 μM
ENDPOINT_LABEL: IC50 (nM)

INSERT INTO assay_data (molecule, units, prefix_operator, result_value) VALUES
  ('CC(C)(C)NC(=O)CN[C@H]1CC[C@@H](CNC(=O)c2cc(Cl)cc(Cl)c2)CC1', 'nM', '≤', 300),
  ('O=C(C[C@H]1CC[C@H](NC(=O)[C@@H]2C[C@@H](c3ccccc3)CN2)CC1)Nc1cc(C(F)(F)F)cc(C(F)(F)F)c1', 'nM', '≤', 300),
  ('CN(C(=O)CN[C@H]1CC[C@H](CNC(=O)c2cc(C(F)(F)F)cc(C(F)(F)F)c2)CC1)C1CCCC1', 'nM', '≤', 300),
  ('COc1cc(C(=O)NC[C@H]2CC[C@@H](NCCNC(=O)OC(C)(C)C)CC2)cc(C(F)(F)F)c1', 'nM', '=', 1030),
  ('CC(C)(C)C(O)CN[C@H]1CC[C@@H](CC(=O)Nc2cc(C(F)(F)F)cc(C(F)(F)F)c2)CC1 (stereo partly drawn)', 'nM', '≤', 300),
  ('Cc1cc(CNC[C@H]2CC[C@H](NC(=O)c3cc(C(F)(F)F)cc(C(F)(F)F)c3)CC2)no1', 'nM', '=', 3470),
  ('O=C(C[C@H]1CC[C@H](NC(=O)C2(c3ccccc3)CCNCC2)CC1)Nc1cc(C(F)(F)F)cc(C(F)(F)F)c1', 'nM', '=', 610),
  ('O=C(CNC[C@H]1CC[C@H](NC(=O)c2cc(C(F)(F)F)cc(C(F)(F)F)c2)CC1)Nc1ccccn1', 'nM', '=', 540),
  ('CN(C(=O)CN[C@H]1CC[C@@H](CNC(=O)c2cc(F)cc(Cl)c2)CC1)C(C)(C)C', 'nM', '=', 1620),
  ('CC1(NC(=O)CN[C@H]2CC[C@H](CNC(=O)c3cc(Cl)cc(Cl)c3)CC2)CCC1', 'nM', '=', 340),
  ('O=C(C[C@H]1CC[C@@H](NC(=O)C2(c3ccccc3)CCNCC2)CC1)NCc1cccc(OC(F)(F)F)c1', 'nM', '≥', 10000),
  ('N[C@H]1CC[C@@H](CC(=O)Nc2cc(C(F)(F)F)cc(C(F)(F)F)c2)CC1', 'nM', '=', 6110);

Reference source: patent US20090298834A1
